Tested on: Plasmodium berghei
Assay remarks: Luciferase/luciferin-expressing antifolate-resistant parasites were used to infect a culture of HepG2 cells that were pre-incubated with compounds. Infected hepatocytes emit light due to the luciferase reaction. Assay results are presented as the percent inhibition of light emission compared to control. […]
Assay type: functional
Condition: sporozoite, HEPG2TOX_HILL_SLOPE 1.58, HEPG2TOX_R_SQUARED 0.969, PBLUC_HILL_SLOPE 3.76, PBLUC_R_SQUARED 0.505, read-out: LUCIFERASE INFECTION ASSAY - IC50
Measure: pIC50
The meaning of pIC50 here: minus log10 of the concentration in molar units.

## Task # get_value(readout='pIC50', item= CC(C)(C)c1n[nH]c2c(-c3nc4ccccc4s3)c(N)nn2c1=O )
## Result 5.50
